Every entry's value here was drawn from ChEMBL document CHEMBL1201862.

tested on: SK-MEL-2; assay: NCI tumour cell line growth inhibition, 48 h
Calls of active or inactive are those of the source. Rule as the data show it: active = GI50 up to about 1.1 µM and inactive = higher.
// values below are reported GI50

See these solved cases before continuing.
>  <Molecule>
CCCCCCCCCCCCCCCCCCNc1ccn(C2OC(CO)C(O)C2O)c(=O)n1 (stereo not given)

>  <GI50>
> 100 µM (inactive)

$$$$
>  <Molecule>
CC1(C)CC(=O)C2=C(C1)NC(=S)C(C#N)C2c1ccccc1 (stereo not given)

>  <GI50>
> 100 µM (inactive)

$$$$
>  <Molecule>
Oc1ccc(-c2nn3c(CCCCCCCCc4nnc5sc(-c6ccc(O)cc6)nn45)nnc3s2)cc1

>  <GI50>
> 100 µM (inactive)

$$$$
>  <Molecule>
CC1=CCC[C@@]2(C)C(CC[C@@H]2C(C)/C=C/C(C)C)c2ccc(cc2C(=O)O)C[C@@H](O)CC1 (stereo not given in full)

>  <GI50>
17.1 µM (inactive)

$$$$

The record that follows has no GI50 shown yet.
For SK-MEL-2, give the measured GI50 of the entry CN1CCN(CCCN2c3ccccc3Sc3ccc(C(F)(F)F)cc32)CC1
7.93 µM (inactive)

* * *

system: MDA-N; experiment: NCI tumour cell line growth inhibition, 48 h
Calls of active or inactive are those of the source. No stated cut-off is given here; in the data, active = GI50 up to about 1.1 µM and inactive = higher.
// values below are reported GI50

See these solved cases before continuing.
>  <Compound>
COC(c1ccc(C(C)(C)C)cc1)(c1ccc(C(C)(C)C)cc1)c1cc(C(O)(c2cc(C(OC)(c3ccc(C(C)(C)C)cc3)c3ccc(C(C)(C)C)cc3)c(C)cc2C)c2cc(C(OC)(c3ccc(C(C)(C)C)cc3)c3ccc(C(C)(C)C)cc3)c(C)cc2C)c(C)cc1C

>  <Target desc>
MDA-N

>  <GI50>
> 100 µM (inactive)

$$$$
>  <Compound>
Cc1cc(O)cc2c1c(=O)c1ccccc1n2C

>  <Target desc>
MDA-N

>  <GI50>
> 100 µM (inactive)

$$$$
>  <Compound>
Cc1cc(=O)oc2cc(O)c(CN(C)CC(=O)O)cc12

>  <Target desc>
MDA-N

>  <GI50>
> 100 µM (inactive)

$$$$
>  <Compound>
COc1ccc(S(=O)(=O)n2c3c(c4ccccc42)[C@@H]2[C@@H](CCCN2C(=O)C[S+]([O-])c2ccc(C)cc2)[C@H](Cl)C3)cc1 (stereo partly drawn)

>  <Target desc>
MDA-N

>  <GI50>
> 100 µM (inactive)

$$$$
>  <Compound>
COC(C/C=C\C=C\CC/C=C/CC(C)/C=C/C(=C\C(=O)O)CC(=O)O)/C(C)=C\C=C(/C)C(=O)O (stereo not drawn)

>  <Target desc>
MDA-N

>  <GI50>
> 100 µM (inactive)

$$$$

Determine its reported GI50: CCCCOc1ccc(/C=C/C2=[N+](CCO)CCO2)cc1
> 100 µM (inactive)

Determine its reported GI50: N#CCCC1C(C#N)C2(Cl)CC1(Cl)C(Cl)=C2Cl (stereo not drawn)
> 10 µM (inactive)

Determine its reported GI50: C/C=C/C=C/C1=NN(c2cccc(S(=O)(=O)O)c2)C2(C1)C(Cl)C(=O)N2c1nc2ccccc2s1 (stereo not drawn)
15.5 µM (inactive)

* * *

tested on: NCI-H522; assay: NCI tumour cell line growth inhibition, 48 h
Active and inactive are the calls of the source. Cut-off read from the data, not from the text of the source: active = GI50 up to about 1.1 µM and inactive = higher.
Property name: GI50

See these solved cases before continuing.
>  <Molecule>
O=C1c2ccccc2C(=O)c2c(OCC3CO3)ccc(OCC3CO3)c21 (stereo unspecified)

>  <Value reported>
3.26 µM (inactive)

$$$$
>  <Molecule>
O=[N+]([O-])c1nccn1CC(O)c1ccccc1 (stereo unspecified)

>  <Value reported>
> 100 µM (inactive)

$$$$
>  <Molecule>
CCOC(=O)c1ccc(NC(NC(=O)CC)(C(F)(F)F)C(F)(F)F)cc1

>  <Value reported>
> 100 µM (inactive)

$$$$
>  <Molecule>
O=C(CCc1ccccc1)NS(=O)(=O)c1ccccc1

>  <Value reported>
> 100 µM (inactive)

$$$$
>  <Molecule>
Cc1nc(-[n+]2nc(-c3ccncc3)nn2-c2ccccc2)sc1C

>  <Value reported>
3.15 µM (inactive)

$$$$

For NCI-H522, give the measured GI50 of the entry COC1(OC)c2ccccc2C2(O)c3ccccc3C(=O)C12 (stereo unspecified)
10.2 µM (inactive)

For NCI-H522, give the measured GI50 of the entry CCCCCC(=O)Nc1[nH]nnc1C#N
> 100 µM (inactive)

For NCI-H522, give the measured GI50 of the entry CCCCOc1ccc(/C=C/C2=[N+](CCO)CCO2)cc1
21.5 µM (inactive)

For NCI-H522, give the measured GI50 of the entry O=C(O)CC/C(=N\Nc1nsc2ccccc12)c1ccc(Cl)cc1
34.5 µM (inactive)

For NCI-H522, give the measured GI50 of the entry O=C(/C=C/c1ccc(Br)cc1)c1ccc(NCc2nc3ccccc3[nH]2)cc1
3.41 µM (inactive)

For NCI-H522, give the measured GI50 of the entry NC(N)=NN/C(=C1/N=c2ccc([N+](=O)[O-])cc2=NC1=O)C(O)c1ccco1 (stereo unspecified)
32.8 µM (inactive)
